System: p38-alpha;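 further: KINOMEscan kinase panel screen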
Construct: gene MAPK14
Details: concentration: 1 μM,replicates: in singlicate; n = 1
Each entry below carries its recorded %Inh.
# output: bare number, implied unit %

Sample records with %Inh:
Cl.Nc1n[nH]c2cc(-c3ccccn3)ccc12 [GSK2189892] | 0
Cc1nnc(-c2ccc3occ(-c4ccc(S(C)=O)cc4)c3n2)o1 (centres unmarked) | 0
CS(=O)c1ccc(-c2coc3ccc(-c4n[nH]c(=O)o4)cc23)cc1 (centres unmarked) | 10
CS(=O)(=O)Nc1ccc(-c2ccnc3[nH]ccc23)cc1 [GSK993273] | 0
C[C@@H]1CNc2c(sc3ccc4nc(-c5ccncc5)ccc4c23)C(=O)N1 | 0
Cn1ccc2ncnc(Oc3ccc(NC(=O)Nc4cccc(C(F)(F)F)c4)c(Cl)c3)c21 | 0

Request: Check the records and state %Inh for CCN1CCN(CCCC(=O)Nc2n[nH]c3nc(-c4ccc(O)cc4)c(Br)cc23)CC1 [SB-731579]
Result: 2

Request: Check the records and state %Inh for COc1cccc(C2=C(Nc3cccc(Cl)c3)C(=O)NC2=O)c1 [SB-341556]
Result: 0

Request: Check the records and state %Inh for CN(c1ccc2c(c1)nc(NCc1ccc(F)cc1)n2C)c1ccnc(Nc2ccc(CS(C)(=O)=O)cc2)n1.Cl [GW813244]
Result: 13

Request: Check the records and state %Inh for CC(C(=O)NC1CCN(c2ccnc(Nc3ccc(F)cc3)n2)C1)c1ccc(Cl)cc1 (centres unmarked) [GSK1379713]
Result: 8

Request: Check the records and state %Inh for CN(c1ccccc1CNc1nc(Nc2ccc3c(c2)CC(=O)N3)ncc1C(F)(F)F)S(C)(=O)=O
Result: 0
